biological target: Androgen receptor (AR) (Homo sapiens, UniProt P10275, T878A); construct: 5.5×10^5 LNCap cells were injected into each well of a 6-well plate; endogenous in cells; host or cells: LNCaP; experiment: Assessment of AR proteolytic activity (Western blotting of LNCap cell lysates); format: cell-based; details: 24 hours of treatment, Western blotting quantified with Image J
Sequence (P10275 whole entry T878A): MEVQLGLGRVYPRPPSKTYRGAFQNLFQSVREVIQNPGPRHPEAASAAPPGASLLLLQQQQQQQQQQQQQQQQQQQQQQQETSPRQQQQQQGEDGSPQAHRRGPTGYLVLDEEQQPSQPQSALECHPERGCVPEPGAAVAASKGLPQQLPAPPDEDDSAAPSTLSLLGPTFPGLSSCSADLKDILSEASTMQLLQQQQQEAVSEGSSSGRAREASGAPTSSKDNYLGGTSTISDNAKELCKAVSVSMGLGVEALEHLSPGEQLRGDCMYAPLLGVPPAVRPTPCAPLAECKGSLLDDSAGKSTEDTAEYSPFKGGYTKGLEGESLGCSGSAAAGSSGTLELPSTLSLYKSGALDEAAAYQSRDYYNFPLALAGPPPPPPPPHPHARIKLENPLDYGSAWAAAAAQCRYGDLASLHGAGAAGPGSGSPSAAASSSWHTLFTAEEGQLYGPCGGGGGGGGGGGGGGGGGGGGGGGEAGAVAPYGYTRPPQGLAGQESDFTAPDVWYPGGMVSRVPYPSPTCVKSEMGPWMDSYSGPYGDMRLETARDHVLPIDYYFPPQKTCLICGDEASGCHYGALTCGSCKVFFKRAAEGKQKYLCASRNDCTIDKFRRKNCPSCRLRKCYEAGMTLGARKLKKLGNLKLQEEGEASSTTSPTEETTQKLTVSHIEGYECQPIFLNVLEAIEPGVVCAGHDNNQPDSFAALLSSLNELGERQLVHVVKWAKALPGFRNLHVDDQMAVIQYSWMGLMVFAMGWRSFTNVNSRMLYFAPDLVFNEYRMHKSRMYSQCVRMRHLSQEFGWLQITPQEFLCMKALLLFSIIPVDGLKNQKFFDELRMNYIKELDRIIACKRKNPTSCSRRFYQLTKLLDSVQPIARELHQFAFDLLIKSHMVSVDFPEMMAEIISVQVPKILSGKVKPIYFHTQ
READOUT_NAME: Degradation (1 μM treated in LNCaP, % AR remaining) (%)

MOLECULE	UNIT_SYMBOL	REPORTED_RESULT
CC1(C)[C@H](NC(=O)c2ccc(N3CCN(CC4CCN(C(=O)C5CCN(c6ccc7nnn(C8CCC(=O)NC8=O)c(=O)c7c6)CC5)CC4)CC3)cc2)C(C)(C)[C@H]1Oc1ccc(C#N)c(Cl)c1 (some centres unmarked) [Example 10]	%	12.5
CC1(C)C(NC(=O)c2ccc(N3CCC(CN4CCN(c5ccc6nnn(C7CCC(=O)NC7=O)c(=O)c6c5)CC4)CC3)nc2)C(C)(C)C1Oc1ccc(C#N)c(Cl)c1 (centres unmarked) [Example 162]	%	30
CC1(C)C(NC(=O)c2ccc(N3CCC4(CC3)CN(CC3CN(c5ccc6c(=O)n(C7CCC(=O)NC7=O)nnc6c5)C3)C4)nc2)C(C)(C)C1Oc1ccc(C#N)c(Cl)c1 (centres unmarked) [Example 175]	%	10
CC1(C)[C@H](NC(=O)c2ccc(OCCOCCOCCOCCOCCOCCCNc3cccc4nnn(C5CCC(=O)NC5=O)c(=O)c34)cc2)C(C)(C)[C@H]1Oc1ccc(C#N)c(Cl)c1 (single isomer, unassigned) [Example 3]	%	47
N#Cc1ccc(O[C@H]2CC[C@@H](NC(=O)c3ccc(N4CCC(CN5CC6(CCN(c7ccc8c(=O)n(C9CCC(=O)NC9=O)nnc8c7)CC6)C5)CC4)nc3)CC2)cc1Cl (some centres unmarked) [Example 167]	%	19

====

system: VCaP cells; experiment: Cytotoxicity assessment (Cell-titer-glo cell viability), VCaP; details: read-out: VCaP (CC50); VCaP cells, 6 days of treatment, Cell-titer-glo, vs DMSO
Label class 1 when CC50 is strictly below 0.04 µM; otherwise label class 0.

MOLECULE	ASSIGNED_CATEGORY
CC1(C)C(NC(=O)c2ccc(-c3cnn(C4CCN(CC5CCN(C(=O)CNc6ccc7nnn(C8CCC(=O)NC8=O)c(=O)c7c6)CC5)CC4)c3)nc2)C(C)(C)C1Oc1ccc(C#N)c(Cl)c1 (stereo not shown)	class 1
CC1(C)C(NC(=O)c2ccc(N3CCN(CCCOC4CCN(C(=O)C5CCN(c6ccc7nnn(C8CCC(=O)NC8=O)c(=O)c7c6)CC5)CC4)CC3)cc2)C(C)(C)C1Oc1ccc(C#N)c(Cl)c1 (stereo not shown)	class 0
CC1(C)C(NC(=O)c2ccc(-n3cc(CC4CCN(c5ccc6nnn(C7CCC(=O)NC7=O)c(=O)c6c5)CC4)nn3)cc2)C(C)(C)C1Oc1ccc(C#N)c(Cl)c1 (stereo not shown)	class 1
CC1(C)C(NC(=O)c2ccc(-n3cc(CCOCCOCCNC(=O)CNc4ccc5nnn(C6CCC(=O)NC6=O)c(=O)c5c4)nn3)cc2)C(C)(C)C1Oc1ccc(C#N)c(Cl)c1 (stereo not shown)	class 0
CC1(C)C(NC(=O)c2ccc(-n3cc(CNC(=O)CNc4ccc5nnn(C6CCC(=O)NC6=O)c(=O)c5c4)nn3)cc2)C(C)(C)C1Oc1ccc(C#N)c(Cl)c1 (stereo not shown)	class 0
CC1(C)[C@H](NC(=O)c2ccc(-n3cc(CN4CCN(C(=O)CNc5ccc6nnn(C7CCC(=O)NC7=O)c(=O)c6c5)CC4)nn3)cc2)C(C)(C)[C@H]1Oc1ccc(C#N)c(Cl)c1 (stereo partly shown)	class 0
CC1(C)[C@H](NC(=O)c2ccc(N3CCN(CC4CCN(C(=O)C5CCN(c6ccc7nnn(C8CCC(=O)NC8=O)c(=O)c7c6)CC5)CC4)CC3)cc2)C(C)(C)[C@H]1Oc1ccc(C#N)c(Cl)c1 (stereo partly shown)	class 0
CC1(C)C(NC(=O)c2ccc(-n3cc(CCNC(=O)C4CCN(c5ccc6nnn(C7CCC(=O)NC7=O)c(=O)c6c5)CC4)nn3)cc2)C(C)(C)C1Oc1ccc(C#N)c(Cl)c1 (stereo not shown)	class 0
CC1(C)C(NC(=O)c2ccc(CCN3CCN(CC4CCN(c5ccc6nnn(C7CCC(=O)NC7=O)c(=O)c6c5)CC4)CC3)cc2)C(C)(C)C1Oc1ccc(C#N)c(Cl)c1 (stereo not shown)	class 1
